# MEASUREMENT DESCRIPTION: Metabolic stability in human liver microsomes assessed as half life
# Format: ADME, Microsome
READOUT KIND: half-life (h)
Unit h implied. Number only.

Input line: Sample Cc1noc(C)c1-c1cc(Cl)c(Nc2cccc(CN3CCCOCC3)c2C(=O)O)c(C2CC2)c1 — what was its half-life?
Output line: 1.53

----------
# EXPERIMENTAL SYSTEM: Alpha-ketoglutarate-dependent dioxygenase FTO (Homo sapiens)
# Sequence (Q9C0B1 whole entry): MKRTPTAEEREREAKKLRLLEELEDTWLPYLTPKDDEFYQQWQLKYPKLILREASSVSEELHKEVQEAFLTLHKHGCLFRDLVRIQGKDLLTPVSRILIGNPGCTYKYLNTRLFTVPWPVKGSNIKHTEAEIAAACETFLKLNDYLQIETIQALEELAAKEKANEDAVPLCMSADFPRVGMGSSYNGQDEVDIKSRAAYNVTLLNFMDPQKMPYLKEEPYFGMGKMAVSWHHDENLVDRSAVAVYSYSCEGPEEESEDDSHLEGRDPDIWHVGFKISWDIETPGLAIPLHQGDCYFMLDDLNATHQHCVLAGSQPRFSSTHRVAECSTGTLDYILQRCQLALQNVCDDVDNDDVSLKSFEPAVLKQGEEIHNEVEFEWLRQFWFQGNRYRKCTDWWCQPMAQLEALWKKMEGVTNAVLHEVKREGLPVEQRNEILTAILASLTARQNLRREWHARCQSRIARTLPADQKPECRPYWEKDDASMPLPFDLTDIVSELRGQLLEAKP
# MEASUREMENT DESCRIPTION: Inhibition of FTO (unknown origin)
Classify: True when IC50 is strictly less than 6 µM; False when IC50 is not.

>>> class_name("CCc1cc(-c2ccncc2)cc(CC)c1Nc1cccc(CN(CCOC)CCOC)c1C(=O)O")
"False"
>>> class_name("O=C(O)c1c(CN2CCCOCC2)cccc1Nc1c(C2CC2)cc(-c2ccncc2)cc1C1CC1")
"True"
>>> class_name("Cc1n[nH]c(C)c1-c1cc(Cl)c(Nc2cccc(CN3CCCOCC3)c2C(=O)O)c(Cl)c1")
"True"
>>> class_name("CCc1cc(-c2ccncc2)cc(CC)c1Nc1cccc(CN(CC)CCN2CCOCC2)c1C(=O)O")
"False"
>>> class_name("Cc1noc(C)c1-c1cc(Cl)c(Nc2cccc(CN3CCCOCC3)c2C(=O)O)c(C2CC2)c1")
"True"
>>> class_name("CCc1cc(-c2ccncc2)cc(CC)c1Nc1cccc(CN(CC)CC)c1C(=O)O")
"False"

// switching to the query compound
Input line: Is it true that IC50 reported for CCc1cc(-c2ccncc2)cc(CC)c1Nc1cccc(Cn2ccnc2)c1C(=O)O is less than 6 µM?
Output line: False

----------
# MEASUREMENT DESCRIPTION: Metabolic stability in mouse liver microsomes assessed as intrinsic clearance per mg of protein
# Assay type: ADME, Microsome
# PROTOCOL CONDITIONS: read-out: CLH
Let's look at some compounds and their measured microsomal CLint.

>>> reading("Cc1noc(C)c1-c1cc(F)c(Nc2ccccc2C(=O)O)c(Cl)c1")
"< 7.5 µL/min/mg"

Switching to the query record.
Input line: Which measured microsomal CLint value corresponds to Cc1noc(C)c1-c1cc(Cl)c(Nc2cccc(CN3CCCOCC3)c2C(=O)O)c(C2CC2)c1 ?
Output line: 13.3 µL/min/mg

----------
List of AUC(0-t) at 24 h values.
# MEASUREMENT DESCRIPTION: AUC(0 to t) in ICR mouse at 10 mg/kg, po measured upto 24 hrs by LC-MS/MS analysis
# Type: ADME, organism-based
# Set-up: dose 10 mg/kg, time < 24 hrs, route po
# PROTOCOL CONDITIONS: in vivo
Returns: string containing the numeric result and its unit.

>>> reading("Cc1noc(C)c1-c1cc(F)c(Nc2ccccc2C(=O)O)c(Cl)c1")
"63600 ng·h/mL"

Here's the next entry for you.
Input line: What does the data say about its AUC(0-t) at 24 h? Entry: Cc1noc(C)c1-c1cc(Cl)c(Nc2cccc(CN3CCCOCC3)c2C(=O)O)c(C2CC2)c1
Output line: 80500 ng·h/mL

----------
# MEASUREMENT DESCRIPTION: Cmax in ICR mouse at 10 mg/kg, po measured upto 24 hrs by LC-MS/MS analysis
# Type: ADME, organism-based
# Design: dose 10 mg/kg, time < 24 hrs, route po
# PROTOCOL CONDITIONS: in vivo
READOUT KIND: Cmax (ng/mL)
Report only the number, with the unit ng/mL understood.

>>> reading("Cc1noc(C)c1-c1cc(F)c(Nc2ccccc2C(=O)O)c(Cl)c1")
8500

Okay, next one:
Input line: Using the record for Cc1noc(C)c1-c1cc(Cl)c(Nc2cccc(CN3CCCOCC3)c2C(=O)O)c(C2CC2)c1 , report its Cmax.
Output line: 7200
